- Tested on: Trypanosoma cruzi
- test_details: Antitrypanosomal activity against Trypanosoma cruzi strain Y trypomastigotes maintained in Rhesus monkey […] cells assessed as decrease in trypomastigotes cell viability incubated for 24 hrs by resazurin dye based colorimetric assay
- Type: functional, organism-based
Answer each item with its documented IC50.

>>> reported_value("COc1cc(CC(C)O)ccc1Oc1cc(CC(C)O)cc(OC)c1OC (centres undefined)")
"> 100 µM"
>>> reported_value("CCCc1ccc(Oc2cc(CCC)cc(OC)c2OC)c(OC)c1")
"> 100 µM"
>>> reported_value("O=C(Cn1ccnc1[N+](=O)[O-])NCc1ccccc1")
"17.7 µM"

(Q) Using the record for CCCOc1c(OC)cc(CCC)cc1Oc1ccc(CCC)cc1OC , report its IC50.
(A) > 100 µM

* * *

- test_details: Selectivity index, ratio of CC50 for mouse NCTC-929 cells to IC50 for Trypanosoma cruzi amastigotes infected in BA;B/c mouse peritoneal macrophages
- Format: toxicity
- condition: read-out: Ratio CC50/IC50
measure: selectivity ratio
One number for each entry.

(Q) Reported selectivity ratio for O=C(Cn1ccnc1[N+](=O)[O-])NCc1ccccc1 : what is it?
(A) 38.1
